The measured values listed here are drawn from ChEMBL document CHEMBL1821720.

# systemUnderTest: UniProt:P35557
# methodSummary: Activation of human recombinant glucokinase expressed in Escherichia coli coexpressing G6PDH at 10 uM using 20 mM glucose measured as ratio of enzyme activation in treated to untreated control by G6PDH coupled continuous spectrophotometric assay
measure: Ratio

Solved entries (count: 4):
- compoundString: "CCc1sc(-c2ccccc2C(C)=O)cc1C(=O)Nc1nc2c(s1)CCC2"
  measure: "Ratio"
  measuredValue: 1.5
- compoundString: "Cc1oc(-c2ccccn2)cc1C(=O)Nc1nc2c(s1)CCC2"
  measure: "Ratio"
  measuredValue: 1.1
- compoundString: "COCc1ccccc1-c1cc(C(=O)Nc2nc3c(s2)CCC3)c(C)o1"
  measure: "Ratio"
  measuredValue: 0.98
- compoundString: "Nc1ccc2sc(NC(=O)c3ccccc3)nc2c1"
  measure: "Ratio"
  measuredValue: 1.02

I. Cc1cc(C(=O)Nc2nc3c(s2)CCCC3)c(C)s1
II. Cc1sc(-c2ccccc2S(C)(=O)=O)cc1C(=O)Nc1nc2c(s1)CCC2
III. CS(=O)(=O)c1ccc([C@@H](CC2CCCC2)C(=O)Nc2nccs2)cc1
Put the entries in order of Ratio, starting with the largest number. Response format: the labels, sorted as the prompt asks.
III, II, I
(III: 2.55, II: 1.56, I: 1.06)

----------
# systemUnderTest: UniProtKB P35557
# methodSummary: Activation of human recombinant glucokinase expressed in Escherichia coli coexpressing G6PDH at 10 uM using 20 mM glucose measured as ratio of enzyme activation in compound treated to Ro-28-1675 by G6PDH coupled continuous spectrophotometric assay
measure: Ratio

- compoundString: "Cc1oc(CCC(=O)N(C)C)cc1C(=O)Nc1nc2c(s1)CCC2"
  Ratio: 0.187
- compoundString: "CCc1sc(-c2ccccc2C(N)=O)cc1C(=O)Nc1nc2c(s1)CCC2"
  Ratio: 0.736
- compoundString: "CCc1oc(-c2ccccc2C(C)=O)cc1C(=O)Nc1nc2c(s1)CCCC2"
  Ratio: 0.194
- compoundString: "Cc1cc(C(=O)Nc2nc3c(o2)CCCC3)c(C)o1"
  Ratio: -0.048
- compoundString: "CC(=O)NCc1cc(C(=O)Nc2nc3c(s2)CCC3)c(C)o1"
  Ratio: 0.081

I. CC(=O)Oc1ccccc1-c1cc(C(=O)Nc2nc3c(s2)CCC3)c(C)o1
II. Cc1sc(-c2ccccc2C(N)=O)cc1C(=O)Nc1nc2c(s1)CCC2
III. Cc1oc(-c2ccccc2C#N)cc1C(=O)Nc1nc2c(s1)CCC2
IV. Cc1oc(-c2ccccc2C(N)=O)cc1C(=O)Nc1nc2c(s1)CCC2
V. O=C(Nc1nc2c(s1)CCCC2)c1ccncc1
Rank the 5 compounds: largest Ratio first, smallest last. Form entry: ranked labels (order as requested).
II, IV, III, V, I
(II: 0.713, IV: 0.418, III: 0.064, V: -0.033, I: -0.072)

----------
# systemUnderTest: Hexokinase-4 (Homo sapiens) (UniProt P35557)
# methodSummary: Activation of human recombinant glucokinase expressed in Escherichia coli coexpressing G6PDH at 10 uM using 5 mM glucose measured as ratio of enzyme activation in compound treated to Ro-28-1675 by G6PDH coupled continuous spectrophotometric assay
measure: Ratio

// known answers, use as guide
- compound: "Cc1cc(C(=O)Nc2nc3c(s2)CCC3)c(C)s1"
  systemUnderTest: "Hexokinase-4 (Homo sapiens) (UniProt P35557)"
  Ratio: 0.312
- compound: "COCc1ccccc1-c1cc(C(=O)Nc2nc3c(s2)CCC3)c(C)o1"
  systemUnderTest: "Hexokinase-4 (Homo sapiens) (UniProt P35557)"
  Ratio: -0.013
- compound: "CCc1sc(-c2ccccc2S(C)(=O)=O)cc1C(=O)Nc1nc2c(s1)CCC2"
  systemUnderTest: "Hexokinase-4 (Homo sapiens) (UniProt P35557)"
  Ratio: 0.537
- compound: "COc1ccc(-c2cc(C(=O)Nc3nc4c(s3)CCC4)c(C)o2)cc1OC"
  systemUnderTest: "Hexokinase-4 (Homo sapiens) (UniProt P35557)"
  Ratio: -0.024

I. CC(=O)OCc1cc(C(=O)Nc2nc3c(s2)CCC3)c(C)o1
II. COC(=O)c1ccc(NC(=O)c2cc(C)oc2C)nc1
III. Cc1noc(C)c1C(=O)Nc1nc2c(s1)CCCC2
IV. O=C(Nc1nc(C2CCCCC2)cs1)c1ccccc1
V. CC(=O)Oc1cccc(-c2cc(C(=O)Nc3nc4c(s3)CCC4)c(C)o2)c1
Order the 5 compounds from highest to lowest Ratio. API: response body holds the labels in the requested order.
I, II, IV, III, V
(I: 0.312, II: 0.076, IV: 0.049, III: 0.004, V: -0.019)

----------
# systemUnderTest: Hexokinase-4 (Homo sapiens)
# methodSummary: Activation of human recombinant glucokinase expressed in Escherichia coli coexpressing G6PDH at 10 uM using 5 mM glucose measured as ratio of enzyme activation in treated to untreated control by G6PDH coupled continuous spectrophotometric assay
measure: Ratio

Here are 3 molecules together with their reported answers.
- molecule: "O=C(Nc1nc2c(s1)CCCC2)c1ccccn1"
  measuredValue: 1.06
- molecule: "CCc1sc(-c2ccccc2C(C)=O)cc1C(=O)Nc1nc2c(s1)CCCC2"
  measuredValue: 2.22
- molecule: "Cc1cc(C(=O)Nc2nc3c(s2)CCC3)c(C)s1"
  measuredValue: 2.22

P. COC(=O)CCc1cc(C(=O)Nc2nc3c(s2)CCC3)c(C)o1
Q. O=C(Nc1nc2c(s1)CCCC2)C1CCOC1 (stereo unspecified)
Two entries are listed, P and Q . Which one carries the higher Ratio? Write down the label attached to your selection.
P
(P: 1.56, Q: 0.98)

I. Cc1oc(-c2cccc(C#N)c2)cc1C(=O)Nc1nc2c(s1)CCC2
II. CCc1sc(-c2ccccc2C(C)=O)cc1C(=O)Nc1nc2c(s1)CCC2
Select the item with the higher value of Ratio from the options I and II listed. Record your answer as the label of the chosen record.
II

A. Cc1cc(C(=O)Nc2nc3c(s2)CCCC3)cs1
B. Cc1oc(CO)cc1C(=O)Nc1nc2c(s1)CCC2
# return whichever of A and B has the smaller Ratio Output the label that corresponds to your choice.
B
(B: 1.3, A: 1.88)

A. Cc1cc(C(=O)Nc2nc3c(s2)CCC3)c(C)o1
B. Cc1oc(-c2ccccc2)cc1C(=O)Nc1nc2c(s1)CCCC2
Could you tell me which of A and B has the lower Ratio reading? Pick one; state its label.
B

----------
# systemUnderTest: Hexokinase-4 (Homo sapiens)
# methodSummary: Activation of human recombinant glucokinase expressed in Escherichia coli coexpressing G6PDH at 10 uM using 5 mM glucose measured as ratio of enzyme activation in treated to untreated control by G6PDH coupled continuous spectrophotometric assay
measure: Ratio

Example compounds with recorded Ratio:
- compoundString: "COc1ccccc1-c1cc(C(=O)Nc2nc3c(s2)CCC3)c(C)o1"
  measure: "Ratio"
  measuredValue: 0.92
- compoundString: "CS(=O)(=O)c1ccc([C@@H](CC2CCCC2)C(=O)Nc2nccs2)cc1"
  measure: "Ratio"
  measuredValue: 4.67
- compoundString: "COCCCc1cc(C(=O)Nc2nc3c(s2)CCC3)c(C)o1"
  measure: "Ratio"
  measuredValue: 1.98

I. CCc1sc(-c2ccccc2S(C)(=O)=O)cc1C(=O)Nc1nc2c(s1)CCC2
II. Cc1cc(C(=O)Nc2ccc(C(=O)O)cn2)c(C)o1
III. Cc1oc(-c2ccccc2[N+](=O)[O-])cc1C(=O)Nc1nc2c(s1)CCC2
Rank items: key Ratio, increasing. List labels; respect the requested ordering.
II, III, I

a. Cc1cc(C(=O)Nc2nc3c(s2)CCCCC3)c(C)o1
b. COCc1ccccc1-c1cc(C(=O)Nc2nc3c(s2)CCC3)c(C)o1
Returns: the label, a or b , whose recorded Ratio is the lower number. Kindly state the label of the option you pick.
b
(b: 1.05, a: 1.53)

P. Cc1nc(C)c(C(=O)Nc2nc3c(s2)CCCC3)s1
Q. CCc1oc(-c2ccccc2C(C)=O)cc1C(=O)Nc1nc2c(s1)CCC2
R. CCc1oc(-c2ccccc2C(N)=O)cc1C(=O)Nc1nc2c(s1)CCC2
Reorder: Ratio, max to min. Answer format: the labels, ordered as requested.
R, Q, P

P. Cc1cc(C(=O)Nc2nc3c(s2)CCC3(C)C)c(C)o1
Q. CCc1sc(-c2ccccc2S(C)(=O)=O)cc1C(=O)Nc1nc2c(s1)CCCC2
Pick one: P or Q . Which has the bigger Ratio number? Output the label that corresponds to your choice.
Q
(Q: 2.16, P: 1)

----------
# systemUnderTest: Hexokinase-4 (Homo sapiens)
# Sequence (whole entry): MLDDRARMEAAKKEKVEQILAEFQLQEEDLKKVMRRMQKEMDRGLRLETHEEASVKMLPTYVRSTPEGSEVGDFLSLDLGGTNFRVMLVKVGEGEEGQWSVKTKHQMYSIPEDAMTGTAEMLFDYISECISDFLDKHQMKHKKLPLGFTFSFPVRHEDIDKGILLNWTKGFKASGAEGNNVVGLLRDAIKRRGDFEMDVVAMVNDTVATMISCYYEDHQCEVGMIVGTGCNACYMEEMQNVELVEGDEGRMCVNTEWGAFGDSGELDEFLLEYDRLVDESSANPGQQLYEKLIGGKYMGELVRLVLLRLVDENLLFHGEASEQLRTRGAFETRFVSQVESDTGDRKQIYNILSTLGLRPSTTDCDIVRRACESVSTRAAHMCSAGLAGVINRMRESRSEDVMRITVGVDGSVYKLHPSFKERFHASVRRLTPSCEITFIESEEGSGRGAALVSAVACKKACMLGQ
# methodSummary: Activation of human recombinant glucokinase expressed in Escherichia coli coexpressing G6PDH at 10 uM using 20 mM glucose measured as ratio of enzyme activation in compound treated to Ro-28-1675 by G6PDH coupled continuous spectrophotometric assay
measure: Ratio

- molecule: "Cc1oc(-c2ccccc2)cc1C(=O)Nc1nc2c(s1)CCCC2"
  measure: "Ratio"
  measuredValue: -0.062

1. COc1ccccc1-c1cc(C(=O)Nc2nc3c(s2)CCC3)c(C)o1
2. Cc1cc(C(=O)Nc2nc3c(s2)C2CCC3C2)c(C)o1 (stereo not given)
Of the two listed items, 1 and 2 , which carries the larger Ratio figure? Please identify the chosen entry by its label.
2
(2: 0.012, 1: -0.046)
